// values below are reported binding signal
System tested: GST-Co-NF-kB (Capsaspora owczarzaki, UniProt F1ARL5 200-546)
Sequence: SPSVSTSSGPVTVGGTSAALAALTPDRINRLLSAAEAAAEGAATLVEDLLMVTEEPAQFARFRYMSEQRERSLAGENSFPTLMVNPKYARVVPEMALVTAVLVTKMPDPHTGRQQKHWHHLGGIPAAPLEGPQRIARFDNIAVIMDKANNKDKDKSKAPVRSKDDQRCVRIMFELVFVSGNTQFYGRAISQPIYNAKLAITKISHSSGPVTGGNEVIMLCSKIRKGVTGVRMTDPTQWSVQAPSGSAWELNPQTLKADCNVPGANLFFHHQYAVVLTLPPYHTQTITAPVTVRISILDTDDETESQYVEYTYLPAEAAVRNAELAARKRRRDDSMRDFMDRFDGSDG
Measurement protocol: protein-binding microarray (PBM); PBM: ~300 nM protein, 6 mM HEPES pH 7.8, 80 mM KCl, 0.5 mM EDTA, 0.5 mM EGTA, 6% glycerol, 35 ng/ul poly-dIdC, 1% milk, 1 h, room temperature; high values mean tight binding
Test parameters: dsDNA, one strand shown
Observable: binding signal

Sequence chain	System tested	Result
CCGATTAACATCAGGGGGATTCATGATGTTAATCGGGTCTTGATTCGCTTGACGCTGCTG	GST-Co-NF-kB (Capsaspora owczarzaki, UniProt F1ARL5 200-546)	5.63 z-score
CCGATTAACATCACGAAATCCCCTGATGTTAATCGGGTCTTGATTCGCTTGACGCTGCTG	GST-Co-NF-kB (Capsaspora owczarzaki, UniProt F1ARL5 200-546)	4 z-score
CCGATTAACATCACATTGGGAAATGATGTTAATCGGGTCTTGATTCGCTTGACGCTGCTG	GST-Co-NF-kB (Capsaspora owczarzaki, UniProt F1ARL5 200-546)	2.31 z-score
CCGATTAACATCAGGAAAACCCCTGATGTTAATCGGGTCTTGATTCGCTTGACGCTGCTG	GST-Co-NF-kB (Capsaspora owczarzaki, UniProt F1ARL5 200-546)	2.41 z-score
CCGATTAACATCAAATTCCCTCGTGATGTTAATCGGGTCTTGATTCGCTTGACGCTGCTG	GST-Co-NF-kB (Capsaspora owczarzaki, UniProt F1ARL5 200-546)	2.32 z-score
CCGATTAACATCACCCCATCTCGTGATGTTAATCGGGTCTTGATTCGCTTGACGCTGCTG	GST-Co-NF-kB (Capsaspora owczarzaki, UniProt F1ARL5 200-546)	2.11 z-score
CCGATTAACATCAGGGGATGAACTGATGTTAATCGGGTCTTGATTCGCTTGACGCTGCTG	GST-Co-NF-kB (Capsaspora owczarzaki, UniProt F1ARL5 200-546)	3.23 z-score
CCGATTAACATCAAAACTCCCCGTGATGTTAATCGGGTCTTGATTCGCTTGACGCTGCTG	GST-Co-NF-kB (Capsaspora owczarzaki, UniProt F1ARL5 200-546)	5.87 z-score
CCGATTAACATCAAGGGGATTTCTGATGTTAATCGGGTCTTGATTCGCTTGACGCTGCTG	GST-Co-NF-kB (Capsaspora owczarzaki, UniProt F1ARL5 200-546)	2.79 z-score

====

System tested: GST-Ap-NF-kB RHD (Exaiptasia pallida (Aiptasia), UniProt A0A913YAJ5 2-422)
Sequence: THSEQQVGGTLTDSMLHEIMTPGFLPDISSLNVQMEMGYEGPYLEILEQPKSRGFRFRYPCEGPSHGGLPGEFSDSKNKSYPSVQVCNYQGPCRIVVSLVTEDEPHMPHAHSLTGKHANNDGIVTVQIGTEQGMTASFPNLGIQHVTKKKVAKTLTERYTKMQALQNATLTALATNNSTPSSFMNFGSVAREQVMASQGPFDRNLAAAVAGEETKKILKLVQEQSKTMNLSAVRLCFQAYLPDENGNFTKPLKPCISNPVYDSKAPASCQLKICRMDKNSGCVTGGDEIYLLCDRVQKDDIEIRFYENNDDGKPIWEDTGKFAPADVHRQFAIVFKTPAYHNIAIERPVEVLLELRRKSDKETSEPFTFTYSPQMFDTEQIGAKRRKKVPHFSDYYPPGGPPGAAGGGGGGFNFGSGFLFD
Measurement protocol: protein-binding microarray (PBM); PBM: ~300 nM protein, 6 mM HEPES pH 7.8, 80 mM KCl, 0.5 mM EDTA, 0.5 mM EGTA, 6% glycerol, 35 ng/ul poly-dIdC, 1% milk, 1 h, room temperature; high values mean tight binding
Test parameters: dsDNA, one strand shown
Observable: binding signal

Sequence chain	Result
CCGATTAACATCACGGCATTCCCTGATGTTAATCGGGTCTTGATTCGCTTGACGCTGCTG	2 z-score
CCGATTAACATCAGGGGTGGGGATGATGTTAATCGGGTCTTGATTCGCTTGACGCTGCTG	4.17 z-score
CCGATTAACATCAAAAAAAGTCCTGATGTTAATCGGGTCTTGATTCGCTTGACGCTGCTG	1.18 z-score
CCGATTAACATCATAATTCCCCATGATGTTAATCGGGTCTTGATTCGCTTGACGCTGCTG	6.71 z-score
CCGATTAACATCAGAATTTCCCATGATGTTAATCGGGTCTTGATTCGCTTGACGCTGCTG	3.88 z-score
CCGATTAACATCACATTATCCCCTGATGTTAATCGGGTCTTGATTCGCTTGACGCTGCTG	4.81 z-score
CCGATTAACATCAGGGAAAAAAATGATGTTAATCGGGTCTTGATTCGCTTGACGCTGCTG	3.48 z-score
CCGATTAACATCAAATTTCCCCTTGATGTTAATCGGGTCTTGATTCGCTTGACGCTGCTG	8.8 z-score
CCGATTAACATCAATTTACCCACTGATGTTAATCGGGTCTTGATTCGCTTGACGCTGCTG	1.67 z-score

====

System tested: GST-Dm-Relish (Drosophila melanogaster, UniProt Q94527 99-473)
Sequence: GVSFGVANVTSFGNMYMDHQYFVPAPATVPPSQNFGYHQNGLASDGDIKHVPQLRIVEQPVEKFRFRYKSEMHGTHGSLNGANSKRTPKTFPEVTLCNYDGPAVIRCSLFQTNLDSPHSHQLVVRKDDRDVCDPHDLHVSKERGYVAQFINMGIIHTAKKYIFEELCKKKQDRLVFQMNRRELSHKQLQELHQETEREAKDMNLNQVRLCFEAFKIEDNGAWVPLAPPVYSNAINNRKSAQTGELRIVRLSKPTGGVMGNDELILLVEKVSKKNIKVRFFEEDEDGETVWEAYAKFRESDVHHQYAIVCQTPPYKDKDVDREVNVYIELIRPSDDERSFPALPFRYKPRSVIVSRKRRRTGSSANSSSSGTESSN
Measurement protocol: protein-binding microarray (PBM); PBM: ~300 nM protein, 6 mM HEPES pH 7.8, 80 mM KCl, 0.5 mM EDTA, 0.5 mM EGTA, 6% glycerol, 35 ng/ul poly-dIdC, 1% milk, 1 h, room temperature; high values mean tight binding
Test parameters: dsDNA, one strand shown
Observable: binding signal (z-score)

Sequence chain	Numeric readout
CCGATTAACATCACGAAAAATCCTGATGTTAATCGGGTCTTGATTCGCTTGACGCTGCTG	1.48
CCGATTAACATCAGGGAGTACCCTGATGTTAATCGGGTCTTGATTCGCTTGACGCTGCTG	8.1
CCGATTAACATCAAGGGGGAAATTGATGTTAATCGGGTCTTGATTCGCTTGACGCTGCTG	5.87
CCGATTAACATCAGGGCAAGTACTGATGTTAATCGGGTCTTGATTCGCTTGACGCTGCTG	1.44
CCGATTAACATCAATTCCCAAAATGATGTTAATCGGGTCTTGATTCGCTTGACGCTGCTG	1.29

====

System tested: GST-Nv-NF-kB (Cys allele) (Nematostella vectensis, UniProt E5G601 2-411)
Sequence: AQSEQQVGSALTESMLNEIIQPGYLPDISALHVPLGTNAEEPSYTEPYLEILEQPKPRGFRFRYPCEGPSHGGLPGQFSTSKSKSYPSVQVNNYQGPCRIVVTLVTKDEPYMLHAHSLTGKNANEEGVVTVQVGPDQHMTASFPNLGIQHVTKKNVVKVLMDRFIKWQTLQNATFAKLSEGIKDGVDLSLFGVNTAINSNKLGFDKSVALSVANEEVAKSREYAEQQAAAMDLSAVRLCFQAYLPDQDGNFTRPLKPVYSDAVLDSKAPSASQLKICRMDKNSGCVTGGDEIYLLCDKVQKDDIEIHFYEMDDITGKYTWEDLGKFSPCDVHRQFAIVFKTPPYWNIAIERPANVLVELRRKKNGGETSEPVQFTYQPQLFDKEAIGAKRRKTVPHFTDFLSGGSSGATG
Measurement protocol: protein-binding microarray (PBM); PBM: ~300 nM protein, 6 mM HEPES pH 7.8, 80 mM KCl, 0.5 mM EDTA, 0.5 mM EGTA, 6% glycerol, 35 ng/ul poly-dIdC, 1% milk, 1 h, room temperature; Ap Aiptasia and Nv Nematostella (sea anemones) / Co Capsaspora / Aq Amphimedon (sponge) / Dm Drosophila / Hu human; RHD is the Rel homology domain; high values mean tight binding
Test parameters: dsDNA, one strand shown

Sequence chain	binding signal / z-score
CCGATTAACATCAATGGGAATTCTGATGTTAATCGGGTCTTGATTCGCTTGACGCTGCTG	4.72
CCGATTAACATCAATGGGATTCCTGATGTTAATCGGGTCTTGATTCGCTTGACGCTGCTG	1.13
CCGATTAACATCAACGTGGGGCGTGATGTTAATCGGGTCTTGATTCGCTTGACGCTGCTG	1.14
CCGATTAACATCAACAATCCCCCTGATGTTAATCGGGTCTTGATTCGCTTGACGCTGCTG	7.16
CCGATTAACATCAGGGGTATTTATGATGTTAATCGGGTCTTGATTCGCTTGACGCTGCTG	5.26
CCGATTAACATCAGGGAATCACATGATGTTAATCGGGTCTTGATTCGCTTGACGCTGCTG	2.66
CCGATTAACATCAGGAGTCCCCATGATGTTAATCGGGTCTTGATTCGCTTGACGCTGCTG	4.39
CCGATTAACATCAAAAATCCCCATGATGTTAATCGGGTCTTGATTCGCTTGACGCTGCTG	10.8
CCGATTAACATCAAGTATCCCCCTGATGTTAATCGGGTCTTGATTCGCTTGACGCTGCTG	5.06
CCGATTAACATCAAGGGGATTCCTGATGTTAATCGGGTCTTGATTCGCTTGACGCTGCTG	10.4
CCGATTAACATCATTAGGGGAAGTGATGTTAATCGGGTCTTGATTCGCTTGACGCTGCTG	5.4
CCGATTAACATCATGGGGAGGAATGATGTTAATCGGGTCTTGATTCGCTTGACGCTGCTG	3.68
CCGATTAACATCAAGAAGTTCCCTGATGTTAATCGGGTCTTGATTCGCTTGACGCTGCTG	3.73
CCGATTAACATCATAAATCCCCATGATGTTAATCGGGTCTTGATTCGCTTGACGCTGCTG	7.56
CCGATTAACATCAAGGGGGGAATTGATGTTAATCGGGTCTTGATTCGCTTGACGCTGCTG	7.02
CCGATTAACATCAAAAGTCCCCATGATGTTAATCGGGTCTTGATTCGCTTGACGCTGCTG	7.91
CCGATTAACATCAAAAAACACCCTGATGTTAATCGGGTCTTGATTCGCTTGACGCTGCTG	4.18
CCGATTAACATCAAGGAGTCCCCTGATGTTAATCGGGTCTTGATTCGCTTGACGCTGCTG	5.61
